Kindly state EC50 for each of the entries shown.
system under test: SARS-CoV-2 spike receptor binding domain (RBD), wild type (SARS-CoV-2, UniProt P0DTC2 319-539)
experiment summary: ELISA, RBD protein coated, mAb titrated
Entry rule: numbers only, all in µg/mL.

Would you mind telling me what EC50 value was observed for C571 (antibody, V domains shown) VH: EVQLVESGGGLIQPGGSLKLSCVVSGFTVSRNYISWVRQAPGKGLEWVSVLFAGGSTFYADSVKGRFAISRDNSNNTLFLQMNSLRVEDTAIYYCARGDGELIFDQWGQGTLVTVSS VL: QSVLTQPPSVSGAPGQRVTIVCTGTSSNIGAGYDVHWYQQLPGRAPKVLVSGNNIRPSEVPDRFSGSRSGTSASLAITSLQPEDEAQYYCQSYDSNLYAVFGGGTKLTVL ? 0.00462

Also, C596 (antibody, V domains shown) VH: QVQLVESGGGVVQPGRSLRLSCAASGITFSHYGMHWVRQAPGKGLEWVALISSDGSKKYYADSVKGRFTISRDNSKSTLYLQMNSLRAEDTAIYYCAKDLGYYYGPPYGPDYWGQGTLVTVSS VL: DIQMTQSPSSLSASVGDRVTITCQASQDVSNSLNWYQQKPGKAPKLLIYDASNLETGVPSRFSGSGSGTDFSFTISSLQPEDIATYYCLQYDNFSMYTFGQGTKLEIK please. 0.021

Also, C527 (antibody, V domains shown) VH: QVQLVESGGGVVQPGRSLRLSCAASGFTFSSYGMHWVRQAPGKGLEWVALIGYDGTDKYYAENVKGRFTISRDNSKNTLFLQMNSLRGGDTAVYLCARDGIPFRYGMDVWGQGTTVTVSS VL: DIQMTQSPSTLSASVGDRVTITCRASQSIDIWLAWYQQKPGKAPKFLIHKASTLESGVPSRFSGSGSGTEFTLTISSLQPDDFATYYCQHYHSYSGTFGQGTKVEIK please. 0.0134

Also, C569 (antibody, V domains shown) VH: QVQLVESGGNVVQPGRSLRLSCAASGFTFSNYGMHWIRQAPGKGLEWVAVISYDGSDKYYADSVKGRVTISRDNSKNTLYLQMNSLRAEDTAVYYCAKGGPYGDHVRSDYWGLGTLVTVSS VL: DIQMTQSPSSLSASVGDRVTITCQASQDISNYLNWYQQKPGKVPKLLIYDASNLETGVPSRFSGSGSGTDFTFTISSLQPEDIATYYCQQFHNLPLTFGQGTKLEIK please. 0.0111

Also, C570 (antibody, V domains shown) VH: QVQLQESGPGLVKPSETLSLTCTVSGASISSYYWSWIRQPPGKGLEWIGYIYYSGSTNYNPSLKSRVTISLDTSKNQFSLQLSSVTAADTAVYYCATYYFDNSGYSYGLDVWGQGTTVTVSS VL: DIQMTQSPSSLSASVGDRVTIACRASQSISSYLHWYQQQPGKAPKLLIYAVTNLQSGVPSRFSGSGSGTDFTLTISSLQPEDFATYYCQQSYSLPQTFGQGTKVEIK please. 0.00074

Also, C526 (antibody, V domains shown) VH: QVQLVQSGAEVKKPGASVKVSCKASGHTFTTYYLHWVRQAPGQGLEWMGRIDPSGGSTTYAQKFQGRVTMTRDTSTSTVYMELSSLRSEDTALYYCARGGYCGSTSCSPDDYFDYWGQGTLVTVSS VL: SYELTQPPSVSVAPGKTARITCGGNNIGSKSVHWYQQKPGQAPVLVIYYDSDRPSGIPERFSGSNSGNTATLTISRVEAGDEADYYCQVWDSSSDHYYVFGTGTKVTVL please. 0.0182
